The following compounds are listed with their measured GI50 values.
Molecular target: LNCaP cells expressing human 17βHSD type 5 (Homo sapiens)
Sequence (P42330 1-323): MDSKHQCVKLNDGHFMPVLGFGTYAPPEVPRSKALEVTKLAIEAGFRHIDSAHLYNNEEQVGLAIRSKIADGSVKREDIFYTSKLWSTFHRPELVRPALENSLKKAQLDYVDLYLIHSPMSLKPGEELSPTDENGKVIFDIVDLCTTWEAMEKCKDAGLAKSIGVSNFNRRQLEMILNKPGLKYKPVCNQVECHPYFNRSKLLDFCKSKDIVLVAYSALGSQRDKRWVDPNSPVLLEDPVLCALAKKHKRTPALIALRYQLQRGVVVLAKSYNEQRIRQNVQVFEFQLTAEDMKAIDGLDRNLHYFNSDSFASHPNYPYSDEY
Test: Cell growth capability using LNCaP cells expressing human 17βHSD type 5 (CellTiter-Glo)
Type: cell-based
Conditions: androstenedione 10 nM, culturing for 7 days; read-out: LNCaP-17β5 IC50 (cell growth inhibitory activity)
assayMetric: GI50 (nM)

- compound: "CC(C)(O)CC1CCN(C(=O)c2cc3ccccc3[nH]2)CC1"
  assayMetric: "GI50"
  endpointResult: 10
- compound: "CC(O)CC1CCN(C(=O)c2cc3ccccc3[nH]2)CC1 (centres unmarked)"
  assayMetric: "GI50"
  endpointResult: 31
- compound: "Cc1ccc2[nH]c(C(=O)N3CCC(CCO)CC3)cc2c1"
  assayMetric: "GI50"
  endpointResult: 60
- compound: "COc1ccc2[nH]c(C(=O)N3CCC(CC(C)(C)O)CC3)cc2c1"
  assayMetric: "GI50"
  endpointResult: 12
- compound: "Cc1ccc2[nH]c(C(=O)N3CCC(CC(C)(C)O)CC3)cc2c1"
  assayMetric: "GI50"
  endpointResult: 24
